# methodDescription: Inhibition of ADP-induced platelet aggregation in canine platelet-rich plasma
Bridge positions count the residues as written; N and C are the ends. Square brackets hold non-standard residues; d marks the D form. Peptide text beside a SMILES is read from it. NMeR = CN[C@@H](CCCNC(=N)N)C(=O)O
propertyName: IC50 (nM)

(P) CC(=O)N(C)C(CCCNC(=N)N)C(=O)NCC1=CC(CC(=O)O)C(=O)N(c2ccccc2)CC1 (configuration not stated)
(Q) CC(=O)N[C@H]1CSSC[C@@H](C(N)=O)NC(=O)[C@H](CC(=O)O)NC(=O)CNC(=O)[C@H](CCCN=C(N)N)N(C)C1=O [SKF-106760] (Ac-C[NMeR]GDC-NH2; disulfide 1-5)
Param pair: P , Q . Output: the one whose IC50 is numerically greater. Response format: the label of the selected entry.
P
